Tested on: MDA-MB-435 melanoma
Assay: NCI-60 one-dose screen, 48 h (100 = growth as untreated, 0 = no growth, -100 = all killed)
Details: 10 µM
About 83,000 compounds went through this panel and 20% of them were active in at least one assay; those are over-represented in the sample as a whole.
readout-kind: growth (%)
Field: numeric (%). Do not append units.

compound	readout-kind	unit-descriptor	recorded-value
CC(=O)N[C@H](C(=O)N[C@@H](CCCNC(=N)N)C(=O)N[C@@H](CCCCN)C(=O)N[C@@H](CCCNC(=N)N)C(=O)N[C@]1(C)CCCCCC/C=C\CCC[C@@](C)(C(=O)N[C@@H](CCCNC(=N)N)C(=O)N[C@@H](CCC(=O)O)C(=O)N[C@@H](CC(C)C)C(=O)N[C@H](C(=O)N[C@@H](CCC(=O)O)C(N)=O)C(C)C)NC(=O)[C@H](CCC(N)=O)NC(=O)[C@H](CC(C)C)NC(=O)[C@H](CC(C)C)NC(=O)[C@H](CCCNC(=N)N)NC(=O)[C@H](CCCNC(=N)N)NC(=O)[C@H](CC(C)C)NC1=O)C(C)C	growth	%	7.66
CCOC(=O)c1sc2ncnc(Nc3ccc(NC(=O)Nc4ccc(Cl)cc4)cc3)c2c1C	growth	%	59.4
N#Cc1c(-c2ccc(Cl)cc2)cc(-c2cc(O)ccc2O)nc1N	growth	%	6.77
Cc1c[nH]c(=O)n(Cc2nnc(CCC(=O)c3nc4ccccc4[nH]3)o2)c1=O	growth	%	-45.8
C[C@@H](O)[C@H]1C(=O)N2C(C(=O)O)=C(SC3CN[C@H](C(=O)N(C)C)C3)[C@H](C)[C@H]12 (stereo partly specified)	growth	%	101
COc1cc(C(=O)/C=C/c2c[nH]c3ccccc23)cc(OC)c1OC	growth	%	7.59
Cc1ccc(NCCN(C)CC(C)O)c2c(=O)c3ccc(Cl)cc3sc12 (stereo unspecified)	growth	%	-49
Cc1ccc(C(SCC(N)C(=O)O)(c2ccc(C)cc2)c2ccc(C)cc2)cc1 (stereo unspecified)	growth	%	-59.8

Inquiry: State its growth on MDA-MB-435 melanoma: CC(=O)Nc1ccc2c(c1)C(=O)c1cccc(C(=O)O)c1-2
Reply text: 102

Inquiry: Under MDA-MB-435 melanoma: growth value of N#CC1=CC2CN(Cc3ccccc3)C1C1C(=O)N(c3ccccc3)C(=O)C21 (stereo unspecified) ?
Reply text: 105

Inquiry: Request - read-out growth | tested on MDA-MB-435 melanoma | compound O=C(CC(CC(=O)c1ccccc1)c1ccccc1O)c1ccccc1
Reply text: 99.1

Inquiry: Provide the documented growth with MDA-MB-435 melanoma as the system for CCCN1CN2C(=O)N3CN(CCC)CN4C(=S)N(C1)C2C34 (stereo unspecified)
Reply text: 106

Inquiry: Give growth (MDA-MB-435 melanoma) of the following compound: CCN(CC)CCCC(C)N=C(C1=C(C(=NC(C)CCCN(CC)CC)c2cccc(OC)c2)C(=O)NC1=O)c1cccc(OC)c1 (stereo unspecified)
Reply text: -91.1

Inquiry: Hi! What's the reported growth for COc1ccc(-c2nn(-c3cccc(Cl)c3)cc2-c2cc(-c3ccccc3)[nH]c(=O)c2C#N)cc1 on MDA-MB-435 melanoma?
Reply text: 81.5

Inquiry: Missing value: growth, MDA-MB-435 melanoma, entry Nc1nc(Cn2c(-c3nonc3N)nc3ccccc32)nc(N2CCCCC2)n1 . Fill in?
Reply text: 39.2

Inquiry: Return growth measured with MDA-MB-435 melanoma given this compound: COc1ccc(-c2csc(NC(=O)c3ccc(Cc4n[nH]c(=O)c5cccnc45)cc3)n2)cc1
Reply text: 98.8

----------
Test system: SNB-75 CNS
Assay: NCI-60 one-dose screen, 48 h
Settings: 10 µM
About 83,000 compounds went through this panel and 20% of them were active in at least one assay; those are over-represented in the sample as a whole. Activity calls are given as the source filed them. How the source made its calls: active means growth percent below 10; inactive means the rest.
Thanks in advance; please answer with one of these: active, inactive

Some solved cases for reference:
molecule	assigned-category
COc1cc(N)c2ncccc2c1SC	inactive
Fc1ccc(C(c2ccc(F)cc2)C(Cl)Cl)cc1	inactive
COc1cccc(CNc2cccc3cn[nH]c23)c1O	inactive
COc1ccc(-c2n[nH]nc2-c2cc(OC)c3c(c2OC)OCO3)cc1	active
COc1ccc(-c2nn(-c3cccc(Cl)c3)cc2/C=C2\NC(=S)N(c3ccc(Cl)cc3)C2=O)cc1	active

Inquiry: Lab log entry: Clc1ccc(C2=NN=C3C(Cc4ccccc4)=Nc4ccccc4N3C2)cc1 — outcome as called in the assay?
Reply text: inactive

Inquiry: Status in this test for COC(=O)C1OC1c1cc([N+](=O)[O-])ccc1OC (stereo not drawn) ?
Reply text: inactive

Inquiry: What was the test verdict on CC(C)c1cc(N=O)cc(C(C)C)c1O ?
Reply text: inactive

Inquiry: What did the test return for COc1cc2nc(SCC(=O)Nc3cc(OC)c(OC)c(OC)c3)n(Cc3ccccc3)c(=O)c2cc1OC ?
Reply text: active

Inquiry: Look up the recorded call for Cc1ccc(/C=C/C(=O)C(=O)/C=C/c2ccc(C)cc2)cc1 in this test.
Reply text: inactive

----------
System: A498 renal
Test: NCI-60 one-dose screen, 48 h
Settings: 10 µM
About 83,000 compounds went through this panel and 20% of them were active in at least one assay; those are over-represented in the sample as a whole. Activity calls are given as the source filed them. The calls were made as follows: active = growth percent below 10; inactive = the rest.
Answer with one of the outcomes Yes (active), No (inactive)

Worked cases, answers included:
compound	assigned-category
Nc1ccc(CC[C@H]2CCC/C=C/[C@@H]3C[C@H](O)C[C@H]3[C@H](O)/C=C/C(=O)O2)cc1	Yes
O=C(Nc1cc(Cl)cc2c1-c1ccc(Cl)cc1C2O)C(Cl)Cl (stereo not given)	No
CCOC(=O)C1=CSC2=NC3=C(CCC/C3=C\c3ccc(Cl)cc3)C(c3ccc(Cl)cc3)N12 (stereo not given)	No
O=S(=O)(Oc1ccc(-c2ccc3sccc3c2)cc1)c1ccc(F)cc1	No
Nc1cc(Br)c(-c2nn3c(CCC(=O)c4nc5ccccc5[nH]4)nnc3s2)c(Br)c1	No
COc1cc(C(=O)N2CCN(c3cc4c(cc3F)c(=O)c(C(=O)NO)cn4C3CC3)CC2)cc(OC)c1OC	No

Inquiry: Which outcome was assigned to COc1ccc(/C=C2\CCCC3=C2NC(N)=NC3c2ccc(OC)cc2)cc1 (stereo not given) in this test?
Reply text: No

Inquiry: # outcome recorded in this test, key = O=C(NCCNC(=O)c1ccc(F)cc1)Nc1ccc(-n2cc(-c3ccncc3)c(-c3ccc(Cl)c(O)c3)n2)cc1
Reply text: Yes

Inquiry: // return assay outcome for COc1ccc(N=Nc2cc(OC)c(OC)c(OC)c2)cc1
Reply text: No

Inquiry: What call does the record list for CCOC(=O)C1=CSC2=NC3=C(CCC/C3=C\c3cc(OC)c(OC)c(OC)c3)C(c3cc(OC)c(OC)c(OC)c3)N12 (stereo not given) ?
Reply text: No

----------
Tested on: U251 CNS
Test: NCI-60 one-dose screen, 48 h (100 = growth as untreated, 0 = no growth, -100 = all killed)
Settings: 10 µM
Compounds without any hit were thinned out: in the full panel of roughly 83,000, 20% have a hit. Active and inactive are the calls of the source. Rule for the calls: active = growth percent below 10; inactive = the rest.
Recorded growth by entry

compound	subject-of-test	recorded-value
CN(C)c1nc(N)c2nccnc2n1	U251 CNS	112% (inactive)
O=C(O)c1ccc(-n2cc(CNc3ccc(Oc4ccccc4)cc3)c(-c3ccccc3)n2)cc1	U251 CNS	83.3% (inactive)
CC(=O)N[C@H](C(=O)N[C@@H](CCCNC(=N)N)C(=O)N[C@@H](CCCCN)C(=O)N[C@@H](CCCNC(=N)N)C(=O)N[C@]1(C)CCC/C=C\CCC[C@@](C)(C(=O)N[C@@H](CC(C)C)C(=O)N[C@@H](CC(C)C)C(=O)N[C@@H](CCC(N)=O)C(=O)N[C@@H](CCC(=O)O)C(=O)N[C@@H](CCCNC(=N)N)C(=O)N[C@@H](CCC(=O)O)C(=O)N[C@@H](CC(C)C)C(=O)N[C@H](C(=O)N[C@@H](CCC(=O)O)C(N)=O)C(C)C)NC(=O)[C@H](CCCNC(=N)N)NC(=O)[C@H](CC(C)C)NC1=O)C(C)C	U251 CNS	100% (inactive)
O=C(CCNC(=O)c1nc(-c2ccccc2)n(-c2ccc(Cl)cc2)n1)NO	U251 CNS	96.1% (inactive)
NNC(=O)Oc1c(Cl)cc(Cl)cc1[N+](=O)[O-]	U251 CNS	97.5% (inactive)

Inquiry: State its growth on U251 CNS: CC[C@@H](C(=O)[C@@H](C)[C@@H](O)[C@H](C)[C@@H]1O[C@@H]([C@@H](CC)C(=O)N(CC)CC)CC[C@@H]1C)C1O[C@]2(C=CC(=O)[C@]3(CC[C@@](C)([C@H]4CC[C@](O)(CC)[C@H](C)O4)O3)O2)[C@H](C)C[C@@H]1C (stereo partly specified)
Reply text: 6.72% (active)

Inquiry: Find the measured growth: item COc1cc(NC(=O)C2=C(N3CCOCC3)/C(=C/c3ccc(Cl)cc3)CC2)cc(OC)c1OC , target or system U251 CNS.
Reply text: 91.2% (inactive)

Inquiry: Item: COc1ccc(C(=O)N/N=C/c2cc(C(F)(F)F)ccc2Cl)cc1 Test system: U251 CNS Read-out: growth Value: ?
Reply text: 109% (inactive)
